Target: Human Androgen Receptor (Homo sapiens (Human), UniProt P10275)
Sequence (P10275 whole entry): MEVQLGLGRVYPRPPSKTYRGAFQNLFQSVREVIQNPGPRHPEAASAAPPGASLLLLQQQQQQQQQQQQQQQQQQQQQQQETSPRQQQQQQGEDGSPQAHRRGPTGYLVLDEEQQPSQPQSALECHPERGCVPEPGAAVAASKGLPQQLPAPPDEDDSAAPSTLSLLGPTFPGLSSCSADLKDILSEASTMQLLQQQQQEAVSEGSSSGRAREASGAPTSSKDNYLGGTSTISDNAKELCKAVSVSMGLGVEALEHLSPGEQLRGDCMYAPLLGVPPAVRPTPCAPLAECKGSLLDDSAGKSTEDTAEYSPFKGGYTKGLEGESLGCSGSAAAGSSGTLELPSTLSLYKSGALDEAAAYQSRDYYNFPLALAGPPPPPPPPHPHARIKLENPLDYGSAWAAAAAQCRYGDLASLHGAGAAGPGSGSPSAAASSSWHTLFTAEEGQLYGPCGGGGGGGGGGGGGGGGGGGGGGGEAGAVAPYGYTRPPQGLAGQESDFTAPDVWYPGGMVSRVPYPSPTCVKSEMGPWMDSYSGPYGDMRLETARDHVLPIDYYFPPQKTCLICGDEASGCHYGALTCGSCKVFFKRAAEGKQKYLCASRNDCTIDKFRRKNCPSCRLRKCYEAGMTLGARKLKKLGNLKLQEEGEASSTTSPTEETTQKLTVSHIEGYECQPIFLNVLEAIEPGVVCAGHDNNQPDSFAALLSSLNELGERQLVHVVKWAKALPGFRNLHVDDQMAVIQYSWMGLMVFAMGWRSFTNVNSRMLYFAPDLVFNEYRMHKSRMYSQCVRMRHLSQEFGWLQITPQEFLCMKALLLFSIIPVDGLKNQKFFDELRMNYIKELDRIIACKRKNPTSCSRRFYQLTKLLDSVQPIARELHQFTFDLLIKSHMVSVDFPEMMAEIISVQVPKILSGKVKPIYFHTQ
Test: Androgen receptor assay: [3H]R1881 displacement, cytosol of HEK-293 cells transfected with hAR (hydroxylapatite assay)
Format: binding
Conditions: relative binding affinity, R1881 = 100; transfected cells
I'd appreciate it if you could supply Human Androgen Receptor Binding RBA (%) R1881 = 100 values for the items below.
Give bare numbers, in %.

Here is how some molecules turned out for Human Androgen Receptor Binding RBA (%) R1881 = 100.
Cc1c(N2C(=O)C(C)(C)N(CCCOc3ccc(-c4ccncc4)cc3C(F)(F)F)C2=S)ccc(C#N)c1C(F)(F)F | 2.6
CC1(C)C(=O)N(c2ccc(C#N)c(C(F)(F)F)c2)C(=S)N1CCCOc1ccc(-c2ccncc2)nc1 | 72
Cc1c(N2C(=O)C(C)(C)N(CCCOc3ccc(-c4ccncc4)cc3Cl)C2=S)ccc(C#N)c1C(F)(F)F | 219
Cc1c(N2C(=O)N(CCCOc3ccc(-c4cc[n+]([O-])cc4)c(Cl)c3)C(C)(C)C2=O)ccc(C#N)c1Cl | 64.2

Next:
Quick one: give measured Human Androgen Receptor Binding RBA (%) R1881 = 100 for CC1(C)C(=O)N(c2ccc(C#N)c(C(F)(F)F)c2)C(=O)N1c1ccc(-c2ccncc2)cc1 0.2

====

System: castrated (CX) immature male rats
Assay: Systemic androgenic (agonistic) activity in orchidectomized (CX) immature male rats
Format: in vivo, rat
Conditions: 0.1 mg/rat/po, 7 days, seminal vesicles weight
Please note: criterion met applies when CX Agonistic activity % Stimulation SV is 30% or greater, and criterion not met applies otherwise.

Cc1c(N2C(=O)N(CCCCc3ccc(-c4ccncc4)cc3)C(C)(C)C2=O)ccc(C#N)c1Cl [EM-9336] | criterion not met
Cc1ccc2cc(OCCCN3C(=O)N(c4ccc(C#N)c(C(F)(F)F)c4)C(=O)C3(C)C)ccc2[n+]1[O-] [EM-9093] | criterion not met
Cc1c(N2C(=O)C(C)(C)N(CCCOc3ccc(-c4cc[n+]([O-])cc4)cc3)C2=S)ccc(C#N)c1Cl [EM-8913] | criterion met
Cc1c(N2C(=O)C(C)(C)N(CCCOc3ccc(-c4ccncc4)cc3C(F)(F)F)C2=S)ccc(C#N)c1C(F)(F)F [EM-8772] | criterion not met
Cc1c(N2C(=O)C(C)(C)N(CCCOc3ccc(-c4ccc(N(C)C)nc4)c(F)c3)C2=S)ccc(C#N)c1Cl [EM-8996] | criterion met
Cc1c(N2C(=O)C(C)(C)N(CCCOc3ccc(-c4ccncc4)c(C#N)c3)C2=S)ccc(C#N)c1Cl [EM-8933] | criterion met

Has Cc1c(N2C(=O)C(C)(C)N(CCCOc3ccc(-c4ccncc4)cc3)C2=S)ccc(C#N)c1C(F)(F)F [EM-8691] a recorded CX Agonistic activity % Stimulation SV greater than or equal to 30%? criterion not met

Does Cc1c(N2C(=O)N(CCCOc3ccc(-c4ccncc4)cc3F)C(C)(C)C2=O)ccc(C#N)c1Cl [EM-9297] have a reported CX Agonistic activity % Stimulation SV of at least 30%? criterion not met

hey, is CX Agonistic activity % Stimulation SV for this one >= 30%? Cc1c(N2C(=O)C(C)(C)N(CCCOc3ccc(-c4ccncc4)c(C(F)(F)F)c3)C2=S)ccc(C#N)c1Cl [EM-8820] criterion met

Please check the record Cc1c(N2C(=O)C(C)(C)N(CCCOc3ccc(-c4cncnc4)cc3)C2=S)ccc(C#N)c1Cl [EM-8685] and state if its CX Agonistic activity % Stimulation SV is at or above 30%. criterion not met

Could you please find out whether Cc1c(N2C(=O)C(C)(C)N(CCCOc3ccc(Oc4ccc(Cl)nc4)nc3)C2=S)ccc(C#N)c1Cl [EM-8828] has CX Agonistic activity % Stimulation SV that meets 30% or exceeds it? criterion met
